# Measured on: T1, ICAM1 on the surface of DU145 cells (human, UniProt P05362 28-532)
# T1 construct: whole, on cells
# Assay notes: flow cytometry, DU145 cells;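 further: purified antibodies in dilution series bound to cells for 1 h at 4 °C, detected with a fluorescent secondary antibody (1 h, 4 °C, dark), read by flow cytometry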
Exercise: for every item that follows, state its recorded Max Binding MFI.
The figure you give is taken to be in MFI; do not add the unit.

input: Max Binding MFI lookup needed for 11G7 (antibody, human IgG1, kappa, V domains shown, Rabbit-human chimeric anti-ICAM1: rabbit VH and VL on human IgG1 and kappa constant regions) VH: QSVEESGGRLVTPGTPLTLTCTVSGFSLSDYYMSWVRQAPGKGLEWIGIISDSGSTYYASWAKGRFTISKTSSTTVDLKITSPTTEDTATYFCARDWSYDSSSGYYYYDMDLWGPGTLVTVSA VL: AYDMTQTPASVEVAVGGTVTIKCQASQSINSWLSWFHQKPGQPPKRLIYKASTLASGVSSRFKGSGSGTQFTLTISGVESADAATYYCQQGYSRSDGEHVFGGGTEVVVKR , thanks.
output: 4820

input: And for 5B12 (antibody, human IgG1, kappa, V domains shown, Rabbit-human chimeric anti-ICAM1: rabbit VH and VL on human IgG1 and kappa constant regions) VH: QSLEESGGRLVTPGTPLTLTCTVSGFSLSSYGMSWVRQAPGKGLEYIGWISFSGSAYYANWAKGRFTISKTSTTVDLKITSPTTEDTATYFCARGGDYGGSTYILNLWGPGTLVTVSS VL: AFELTQTPSSVEAAVGGTVTIKCQASESIDSYLSWYQQKPGQPPKLLIYAASTLASGVSSRFKGSGSGTEFTLTISDLESADAATYYCQSYSGTITTSGGAFGGGTEVVVKR ?
output: 5940

input: And for 16E4 (antibody, human IgG1, kappa, V domains shown, Rabbit-human chimeric anti-ICAM1: rabbit VH and VL on human IgG1 and kappa constant regions) VH: QSVEESGGRLVTPGTPLTLTCTVSGFSLSSHAMGWVRQAPGKGLQYIGIIGSSGSTYYASWAKGRFTISKTSTTVDLRLTSPTTEDTATYFCVRDPYDSFGDAYRLWGPGTLVTVSS VL: AYDMTQTPASVEVAVGGTVTIKCQASQSIYSYCSWYQQKPGQRPKFLIYDASKLASGVPSRFKGSGSGTEFTLTISGMQSDDAATYYCQQAYSSSNVDNAFGGGTEVVVKR ?
output: 3700
